Values from patent US20240352133A1

- System Under Test: Recombinant human his-tagged IGF 1R extracellular domain protein (human) (UniProt P08069)
- Test Summary: SPR, captured antibody, pH 7.4
Assay Endpoint: Kd (nM)
Dear colleague, please return just the value in nM, with no unit written.

Binder: VRDN-03042 (antibody, V domains shown) VH: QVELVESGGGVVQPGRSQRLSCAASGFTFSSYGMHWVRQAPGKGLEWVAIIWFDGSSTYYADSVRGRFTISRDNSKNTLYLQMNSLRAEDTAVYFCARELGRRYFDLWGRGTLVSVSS VL: EIVLTQSPATLSLSPGERATLSCRASQHVSSYLAWYQQKPGQAPRLLIYDASKRATGIPARFSGSGSGTDFTLTISSLEPEDFAVYYCQQRSKWPPWTFGQGTKVESK
Kd [nM]: 1.53
--
Binder: VRDN-03099 (antibody, V domains shown) VH: QVQLVESGGGVVQPGRSLRLSCAASGFTFSSYSMHWVRQAPGKGLEWVAIIWFDGSSKYYVDSVKGRFTISRDNSKNTLYLQMNSLRAEDTAVYYCARELGRRYFDIWGRGTLVTVSS VL: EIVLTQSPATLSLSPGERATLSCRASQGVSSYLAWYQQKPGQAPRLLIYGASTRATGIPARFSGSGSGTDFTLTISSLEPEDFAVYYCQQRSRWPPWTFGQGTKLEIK
Kd [nM]: 2.18
--
Binder: VRDN-03121 (antibody, V domains shown) VH: EVQLVESGGGVVQPGRSLRLSCAASGFTFSSYSMHWVRQAPGKGLEWVAVIWYDGSSKYYADSVKSRFTISRDNSKNTLYLQMNSLRAEDTAVYYCARELGRRYFDIWGRGTLVTVSS VL: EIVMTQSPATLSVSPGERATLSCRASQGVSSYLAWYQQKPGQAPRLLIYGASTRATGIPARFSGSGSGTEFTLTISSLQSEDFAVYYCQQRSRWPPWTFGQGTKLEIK
Kd [nM]: 4.27
--
Binder: VRDN-03129 (antibody, V domains shown) VH: EVQLVESGGGVVQPGRSLRLSCAASGFTFSSYSMHWVRQAPGKGLEWVAIIWFDGSNKYYADSVKSRFTISRDNSKNTLYLQMNSLRAEDTAVYYCARELGRRYFDIWGQGTLVTVSS VL: EIVMTQSPATLSVSPGERATLSCRASQGVSSNLAWYQQKPGQAPRLLIYGASTRATGIPARFSGSGSGTEFTLTISSLQSEDFAVYYCQQRSRWPPWTFGGGTKLEIK
Kd [nM]: 11

What does the data say about its Kd? Entry: VRDN-03133 (antibody, V domains shown) VH: EVQLVESGGGVVQPGRSLRLSCAASGFTFSSYSMHWVRQAPGKGLEWVAVIWYDGSSKYYADSVKSRFTISRDNSKNTLYLQMNSLRAEDTAVYYCARELGRRYFDIWGRGTLVTVSS VL: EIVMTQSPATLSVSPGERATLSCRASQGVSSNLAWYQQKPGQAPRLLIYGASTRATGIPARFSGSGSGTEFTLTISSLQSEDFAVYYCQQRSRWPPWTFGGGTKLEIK
6.51
